Method summary: Inhibition of Tel-fused SYK (unknown origin) expressed in mouse BA/F3 cells after 48 hrs by luciferase reporter gene assay in absence of recombinant mouse IL3
# maps each entry to its IC50
Give a bare numeral; the unit µM is implied.

INSERT INTO results (smiles_repr, unit_descriptor, reported) VALUES
  ('N#Cc1ccc(-c2cnc3ccc(NCc4ccccc4)nn23)cc1', 'µM', 4),
  ('OC1CCN(c2cc(-c3cnc4ccc(N5CCC[C@@H]5c5cccc(F)c5)nn34)ccn2)CC1', 'µM', 7.9);

// next item, IC50 requested
Entry under review: O=C(O)CN1CCN(c2cc(-c3cnc4ccc(N5CCC[C@@H]5c5cccc(F)c5)nn34)ccn2)CC1 . Reported IC50? 4.4

====

Method summary: Inhibition of Tel-fused MET (unknown origin) expressed in mouse BA/F3 cells after 48 hrs by luciferase reporter gene assay in absence of recombinant mouse IL3
Parameter: IC50 (µM)
Give a bare numeral; the unit µM is implied.

INSERT INTO results (smiles_repr, reported) VALUES
  ('O=C(O)CN1CCN(c2cc(-c3cnc4ccc(N5CCC[C@@H]5c5cccc(F)c5)nn34)ccn2)CC1', 4.3);

// next item, IC50 requested
Entry under review: N#Cc1ccc(-c2cnc3ccc(NCc4ccccc4)nn23)cc1 . Reported IC50? 5.1

====

Method summary: Inhibition of Tel-fused BRAF (unknown origin) expressed in mouse BA/F3 cells after 48 hrs by luciferase reporter gene assay in absence of recombinant mouse IL3
Parameter: IC50
Reply with the number, then its unit.

INSERT INTO assay_data (smiles_repr, reported) VALUES
  ('O=C(O)CN1CCN(c2cc(-c3cnc4ccc(N5CCC[C@@H]5c5cccc(F)c5)nn34)ccn2)CC1', '6.2 µM');

// next item, IC50 requested
Entry under review: N#Cc1ccc(-c2cnc3ccc(NCc4ccccc4)nn23)cc1 . Reported IC50? 2.5 µM

====

# maps each entry to its log10 IC50
Method summary: Inhibition of Tel-fused TRKB (unknown origin) overexpressed in mouse BA/F3 cells assessed as inhibition of cell proliferation after 48 hrs by luciferase reporter gene assay in absence of recombinant mouse IL3
Values below are the log10 of the recorded IC50, with nM as the unit.

Solved entries:
INSERT INTO measurements (compound, reported) VALUES
  ('N#Cc1cccc(-c2cnc3ccc(NCc4ccccc4)nn23)c1', 2.30),
  ('O=C(Nc1ccc(-c2cnc3ccc(NCc4cccc(F)c4)nn23)cc1)C1CCOCC1', 0.85),
  ('OC1CCN(c2cccc(-c3cnc4ccc(N5CCC[C@@H]5c5cccc(F)c5)nn34)n2)CC1', 0.60);

Entry under review: COc1ccccc1CNc1ccc2ncc(-c3ccc(C#N)cc3)n2n1 . Reported log10 IC50? 2.08

Entry under review: N#Cc1ccc(-c2cnc3ccc(N4CCCCC4c4cccc(F)c4)nn23)cc1 (stereo not given) . Reported log10 IC50? 1.70

====

Method summary: Inhibition of Tel-fused TRKC (unknown origin) overexpressed in mouse BA/F3 cells assessed as inhibition of cell proliferation after 48 hrs by luciferase reporter gene assay in absence of recombinant mouse IL3
# maps each entry to its IC50
Give a bare numeral; the unit nM is implied.

Solved entries:
INSERT INTO results (smiles_repr, parameter, reported) VALUES
  ('Fc1cccc([C@H]2CCCN2c2ccc3ncc(-c4ccccn4)n3n2)c1', 'IC50', 1),
  ('N#Cc1ccc(-c2cnc3ccc(NCc4ccccc4)nn23)cc1', 'IC50', 100);

Entry under review: OC1CCN(c2cc(-c3cnc4ccc(N5CCC[C@@H]5c5cccc(F)c5)nn34)ccn2)CC1 . Reported IC50? 2

Origin of the recorded values: BindingDB's records for doi:10.1021/acsmedchemlett.5b00050
